Test: The drug is tested on Z-002 corresponding to rabbit gut metagenome with ENA study accession number: PRJEB37062 and ENA sample accession number: ERS12561802 for biotransformation under anaerobic condition. The drug concentrations were measured over 9 timepoints collected between 0 and 24 hours of incubation by liquid-chromatography-coupled mass spectrometry (LC–MS); also: call rule not given here
Conditions: 2 µM
Where a SMILES comes first, the peptide text is derived from it. [ ]: non-standard residue; d: D form. pGlu = O=C1CC[C@@H](C(=O)O)N1; Thz = O=C(O)[C@@H]1CSCN1
readoutType: Bacterial Biotransformation

Past entries and their recorded results:
// Bacterial Biotransformation lookup, compound = CCCCCOC(=O)Nc1nc(=O)n([C@@H]2O[C@H](C)[C@@H](O)[C@H]2O)cc1F , result: Compound metabolized

// Bacterial Biotransformation lookup, compound = CNS(=O)(=O)Cc1ccc2[nH]cc(CCN(C)C)c2c1.O=C(O)CCC(=O)O [SUMATRIPTAN SUCCINATE] , result: Compound metabolized

// Bacterial Biotransformation lookup, compound = O=c1[nH]c2ccccc2n1CCCN1CCC(n2c(=O)[nH]c3cc(Cl)ccc32)CC1 , result: Compound NOT metabolized

// Bacterial Biotransformation lookup, compound = CC(=O)OCC(=O)[C@@]12N=C(C)O[C@@H]1C[C@H]1[C@@H]3CCC4=CC(=O)C=C[C@]4(C)[C@H]3[C@@H](O)C[C@@]12C , result: Compound metabolized

// Bacterial Biotransformation lookup, compound = OCCN1CCN(CCCN2c3ccccc3Sc3ccc(C(F)(F)F)cc32)CC1 , result: Compound metabolized

Others:
// Bacterial Biotransformation lookup, compound = CCC(COC(=O)c1cc(OC)c(OC)c(OC)c1)(c1ccccc1)N(C)C.O=C(O)/C=C\C(=O)O (configuration not stated) , result: Compound NOT metabolized

// Bacterial Biotransformation lookup, compound = O=C1CC[C@@H](C(=O)N2CSC[C@H]2C(=O)O)N1 [PIDOTIMOD] ([pGlu]-[Thz]-OH) , result: Compound NOT metabolized

* * *

Conditions: human gut metagenome, 24 h, 2 µM
readoutType: Bacterial Biotransformation

// Bacterial Biotransformation lookup, molecule = N#Cc1ccc(C(c2ccc(C#N)cc2)n2cncn2)cc1 , result: Compound NOT metabolized

// Bacterial Biotransformation lookup, molecule = COc1cc2nc(N(C)CCCNC(=O)C3CCCO3)nc(N)c2cc1OC (stereo not given) , result: Compound metabolized

// Bacterial Biotransformation lookup, molecule = COc1ccc(CCN(C)CCCC(C#N)(c2ccc(OC)c(OC)c2)C(C)C)cc1OC (stereo not given) , result: Compound metabolized

// Bacterial Biotransformation lookup, molecule = CNS(=O)(=O)Cc1ccc2[nH]cc(CCN(C)C)c2c1.O=C(O)CCC(=O)O [SUMATRIPTAN SUCCINATE] , result: Compound metabolized

Others:
// Bacterial Biotransformation lookup, molecule = CCC1(c2ccc(N)cc2)CCC(=O)NC1=O (stereo not given) [AMINOGLUTETHIMIDE] , result: Compound NOT metabolized

// Bacterial Biotransformation lookup, molecule = CCN(CC)CCOCCOC(=O)C1(c2ccccc2)CCCC1.O=C(O)CC(O)(CC(=O)O)C(=O)O [CARBETAPENTANE CITRATE] , result: Compound metabolized

// Bacterial Biotransformation lookup, molecule = NC12CC3CC(CC(C3)C1)C2 , result: Compound NOT metabolized

// Bacterial Biotransformation lookup, molecule = O=C1NCC2(CCN(CCc3ccccc3)CC2)O1 [FENSPIRIDE] , result: Compound NOT metabolized

// Bacterial Biotransformation lookup, molecule = Cc1ccc(/C(=C\CN2CCCC2)c2ccccn2)cc1 , result: Compound NOT metabolized

// Bacterial Biotransformation lookup, molecule = CCc1nn(CCCN2CCN(c3cccc(Cl)c3)CC2)c(=O)n1CCOc1ccccc1 , result: Compound metabolized

// Bacterial Biotransformation lookup, molecule = Cc1ccnc2c1NC(=O)c1cccnc1N2C1CC1 , result: Compound metabolized

// Bacterial Biotransformation lookup, molecule = COC(=O)[C@H]1[C@H]2C[C@@H]3c4[nH]c5cc(OC)ccc5c4CCN3C[C@H]2C[C@@H](OC(=O)c2cc(OC)c(OC)c(OC)c2)[C@@H]1OC , result: Compound metabolized

// Bacterial Biotransformation lookup, molecule = NC(CO)(CO)CO.O=C(c1ccccc1)c1ccc2n1CCC2C(=O)O (stereo not given) , result: Compound metabolized

// Bacterial Biotransformation lookup, molecule = CN1CCc2cccc3c2[C@H]1Cc1ccc(O)c(O)c1-3 , result: Compound NOT metabolized

// Bacterial Biotransformation lookup, molecule = CN(C)CCC=C1c2ccccc2C=Cc2ccccc21 , result: Compound metabolized

// Bacterial Biotransformation lookup, molecule = CC(=O)OCC(=O)[C@@]12N=C(C)O[C@@H]1C[C@H]1[C@@H]3CCC4=CC(=O)C=C[C@]4(C)[C@H]3[C@@H](O)C[C@@]12C , result: Compound metabolized

Every entry's value here was drawn from ChEMBL document CHEMBL5724914.
